The reported measurements were obtained from ChEMBL document CHEMBL5365467.

Experiment: Tmax in non human primate at 2 mg/kg, po measured upto 24 hrs by LC-MS/MS analysis
Type: ADME, organism-based
Conditions: primates, in vivo
property: Tmax (h)
Respond with the bare value in h.

Query: Would you mind telling me what Tmax value was observed for C[C@H]1CC2(CCN(c3ccc(C(=O)N4CCC(CN5Cc6cc7c(cc6C5)C(=O)N(C5CCC(=O)NC5=O)C7=O)CC4)cc3)CC2)CN1c1ccc(C#N)c(Cl)c1 (stereo partly specified) ?
Reply: 3.33

* * *

Assay: Volume of distribution at steady state in Sprague-Dawley rat at 2 mg/kg, iv measured upto 24 hrs by LC-MS/MS analysis
Settings: in vivo
property: Vd at 24 h (L/kg)
Respond with the bare value in L/kg.

Answered cases to consult:
| compound | unit-of-measurement | assay-value |
| --- | --- | --- |
| C[C@H]1CC2(CCN(c3ccc(C(=O)N4CC(N5Cc6cc7c(cc6C5)C(=O)N(C5CCC(=O)NC5=O)C7=O)C4)cc3)CC2)CN1c1ccc(C#N)c(Cl)c1 (some centres not stated) | L/kg | 2.7 |
| COC1(CN2Cc3cc4c(cc3C2)C(=O)N(C2CCC(=O)NC2=O)C4=O)CCN(C(=O)c2ccc(N3CCC4(CC3)C[C@H](C)N(c3ccc(C#N)c(Cl)c3)C4)cc2)CC1 (some centres not stated) | L/kg | 4.1 |

Query: Would you mind telling me what Vd at 24 h value was observed for C[C@H]1CC2(CCN(c3ccc(C(=O)N4CCC(C)(CN5Cc6cc7c(cc6C5)C(=O)N(C5CCC(=O)NC5=O)C7=O)CC4)cc3)CC2)CN1c1ccc(C#N)c(Cl)c1 (some centres not stated) ?
Reply: 3.1

Query: Would you mind telling me what Vd at 24 h value was observed for C[C@H]1CC2(CCN(c3ccc(C(=O)N4CCC(CN5Cc6cc7c(cc6C5)C(=O)N(C5CCC(=O)NC5=O)C7=O)CC4)cc3)CC2)CN1c1ccc(C#N)c(Cl)c1 (some centres not stated) ?
Reply: 1.7

Query: Would you mind telling me what Vd at 24 h value was observed for C[C@H]1CC2(CCN(c3ccc(C(=O)N4CCC(F)(CN5Cc6cc7c(cc6C5)C(=O)N(C5CCC(=O)NC5=O)C7=O)CC4)cc3)CC2)CN1c1ccc(C#N)c(Cl)c1 (some centres not stated) ?
Reply: 4.2

Query: Would you mind telling me what Vd at 24 h value was observed for C[C@H]1CC2(CCN(c3ccc(C(=O)N4CCC(N5Cc6cc7c(cc6C5)C(=O)N(C5CCC(=O)NC5=O)C7=O)CC4)cc3)CC2)CN1c1ccc(C#N)c(Cl)c1 (some centres not stated) ?
Reply: 6.1

Query: Would you mind telling me what Vd at 24 h value was observed for C[C@H]1CC2(CCN(c3ccc(C(=O)N4CC(CN5Cc6cc7c(cc6C5)C(=O)N(C5CCC(=O)NC5=O)C7=O)C4)cc3)CC2)CN1c1ccc(C#N)c(Cl)c1 (some centres not stated) ?
Reply: 1.8
